Ref: ChEMBL document CHEMBL1128994

Biological target: Thymidylate synthase (Mus musculus, UniProt P07607)
Sequence (P07607 whole entry): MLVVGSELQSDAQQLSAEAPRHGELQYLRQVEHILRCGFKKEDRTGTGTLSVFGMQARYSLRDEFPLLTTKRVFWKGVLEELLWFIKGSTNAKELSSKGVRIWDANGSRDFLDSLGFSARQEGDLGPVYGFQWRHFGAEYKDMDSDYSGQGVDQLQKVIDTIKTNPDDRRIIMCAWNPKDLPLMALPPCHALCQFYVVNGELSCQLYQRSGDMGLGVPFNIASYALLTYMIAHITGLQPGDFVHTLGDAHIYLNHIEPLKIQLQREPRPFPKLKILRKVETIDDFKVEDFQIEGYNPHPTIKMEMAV
Experiment: Compound was evaluated for the inhibition of Thymidylate synthase.
pIC50: −log10 of the molar value.
measurementLabel: pIC50

[
  {
    "smilesString": "C#CCN(Cc1cc2c(O)nc(C)nc2cc1C)c1ccc(C(=O)N[C@@H](CCC(=O)N[C@@H](C)c2nnn[nH]2)C(=O)O)c(F)c1",
    "number": 9.00
  }
]

----------
Target: UniProtKB P07607
Assay: Compound was evaluated for the inhibition of Thymidylate synthase in experiment 2
Quick reference for IC50 among some molecules
measurementLabel: IC50 (nM)

[
  {
    "molecule": "C#CCN(Cc1cc2c(O)nc(C)nc2cc1C)c1ccc(C(=O)N[C@@H](CCC(=O)N[C@@H](CCc2nnn[nH]2)C(=O)O)C(=O)O)c(F)c1",
    "targetSystem": "UniProtKB P07607",
    "unitText": "nM",
    "number": 1.86
  },
  {
    "molecule": "C#CCN(Cc1ccc2nc(C)[nH]c(=O)c2c1)c1ccc(C(=O)N[C@@H](CCC(=O)N[C@@H](CCc2nnn[nH]2)C(=O)O)C(=O)O)cc1",
    "targetSystem": "UniProtKB P07607",
    "unitText": "nM",
    "number": 4
  },
  {
    "molecule": "C#CCN(Cc1cc2c(=O)[nH]c(C)nc2cc1C)c1ccc(C(=O)N[C@@H](CCC(=O)NC(CCC(=O)O)C(=O)O)C(=O)O)c(F)c1 (stereo in doubt)",
    "targetSystem": "UniProtKB P07607",
    "unitText": "nM",
    "number": 0.92
  }
]

----------
Quick reference for IC50 among some compounds
Molecular target: UniProt:P07607
Test: Compound was evaluated for the inhibition of Thymidylate synthase in experiment 1
measurementLabel: IC50 (nM)

[
  {
    "compound": "C#CCN(Cc1cc2c(=O)[nH]c(C)nc2cc1C)c1ccc(C(=O)N[C@@H](CCC(=O)NC(CCC(=O)O)C(=O)O)C(=O)O)c(F)c1 (stereo in doubt)",
    "number": 0.4
  },
  {
    "compound": "C#CCN(Cc1ccc2nc(C)[nH]c(=O)c2c1)c1ccc(C(=O)N[C@@H](CCC(=O)N[C@@H](CCc2nnn[nH]2)C(=O)O)C(=O)O)cc1",
    "number": 6
  },
  {
    "compound": "C#CCN(Cc1cc2c(O)nc(C)nc2cc1C)c1ccc(C(=O)N[C@@H](CCC(=O)N[C@@H](CCc2nnn[nH]2)C(=O)O)C(=O)O)c(F)c1",
    "number": 0.82
  }
]
